- system: Kv7.2 (Homo sapiens)
- Construct: expressed in transfected cells
- method_notes: Activation of Kv7.2 (in vitro assay, concentration response curve)
- Assay type: cell-based
- conditions: Kv7.2 activation max %
Everything with Emax lower than 60% is no (0); everything else, including exactly 60%, is yes (1).

INSERT INTO results (compound, label) VALUES
  ('COc1cc(CNC(=O)N[C@H]2C[C@H](C(F)(F)F)C2)ccn1', 'yes (1)'),
  ('O=C(NCc1ccnc(OCC(F)(F)F)c1)NCC(O)C12CC(F)(C1)C2 (stereo not drawn)', 'yes (1)');

Query block: Answer whether Emax of O=C(NCc1ccnc(-n2cnc(C(F)(F)F)c2)c1)N[C@H]1C[C@@H]2CC[C@H]1C2 (racemic) is greater than or equal to 60%.
Result block: yes (1)

Query block: Try the compound O=C(NCc1ccnc(OCC(F)(F)F)c1)NCC12CC(F)(C1)C2
Result block: no (0)

Query block: Try the compound O=C(NCc1ccnc(OC(F)F)c1)N[C@@H]1CC[C@H](C(F)(F)F)C1 (racemic) [Example 59]
Result block: yes (1)

Query block: Try the compound O=C(NCc1ccnc(OC(F)F)c1)N[C@@H](CC(F)(F)F)C(F)(F)F
Result block: no (0)

Query block: Try the compound CC1CC(C)(C)CCC1NC(=O)NCc1ccnc(-n2ccnc2)c1 (stereo not drawn)
Result block: no (0)

Query block: Try the compound [2H]C([2H])(NC(=O)NCc1ccnc(OC(F)F)c1)C1CCC1
Result block: yes (1)

---

- system: Kv7.2 (Homo sapiens, UniProt O43526)
- method_notes: Activation of Kv7.2 (in vitro assay, concentration response curve)
- conditions: activation of Kv7.2
pEC50: −log10 of the molar value.
Everything with pEC50 lower than 6 is not satisfied; everything else, including exactly 6, is satisfied.

INSERT INTO results (compound, label) VALUES
  ('O=C(NCc1ccnc(OC(F)F)c1)N[C@@H]1CC[C@@H]2[C@H]1C2(F)F [Example 133]', 'satisfied'),
  ('O=C(NCc1ccnc(OC(F)F)c1)NC1CCC2C(C1)C2(F)F (stereo not drawn) [Example 222]', 'satisfied'),
  ('C[C@H](F)COc1cc(CNC(=O)N[C@H]2C[C@H](C(F)(F)F)C2)ccn1 [Example 202]', 'satisfied'),
  ('Cc1cc(NC(=O)NCc2ccnc(OC(F)F)c2)ccc1F [Example 261]', 'satisfied'),
  ('CC1CC(NC(=O)NCc2ccnc(OC(F)F)c2)C1 (stereo not drawn) [Example 65]', 'satisfied');

Query block: Answer whether pEC50 of O=C(NCc1ccnc(OC(F)F)c1)N[C@H]1CC[C@@H](C(F)(F)F)C1 [Example 144] is greater than or equal to 6.
Result block: satisfied

Query block: Try the compound CC(C)(C)CNC(=O)NCc1ccnc(OC(F)F)c1 [Example 29]
Result block: satisfied

Query block: Try the compound O=C(NCc1ccnc(OC(F)F)c1)Nc1nccc(Cl)n1 [Example 96]
Result block: not satisfied

---

- system: Kv7.2 (Homo sapiens, UniProt O43526)
- method_notes: Activation of Kv7.2 (in vitro assay, concentration response curve)
- conditions: activation of Kv7.2
pEC50: −log10 of the molar value.
Everything with pEC50 lower than 6 is Not met; everything else, including exactly 6, is Met.

For orientation, consider the following solved cases.
INSERT INTO results (molecule, label) VALUES
  ('O=C(NCc1ccnc(OC(F)F)c1)NC1CCCC1(F)F (centres unmarked)', 'Not met'),
  ('CC(C)(C)CCNC(=O)NCc1ccnc(OC(F)F)c1', 'Met'),
  ('O=C(NCc1ccnc(OC(F)F)c1)NC1CCC(OC(F)F)C1 (centres unmarked)', 'Met'),
  ('O=C(Nc1cccc(Cl)c1)NC(CO)c1ccnc(OC(F)F)c1 (centres unmarked) [Example 97]', 'Met');

In the following, a different molecule is considered.
Query block: Answer whether pEC50 of CC12CC(NC(=O)NCc3ccnc(OC(F)F)c3)(C1)C2 is greater than or equal to 6.
Result block: Met

---

Give measured pEC50 for each item. Keep answers brief.
- system: Kv7.2 (Homo sapiens)
- method_notes: Activation of Kv7.2 (in vitro assay, concentration response curve)
- conditions: activation of Kv7.2
Answers are plain numbers, as −log10 of the molar value.

Guide cases for pEC50, answers given:
INSERT INTO assay_data (molecule, test_value) VALUES
  ('O=C(NCc1ccnc(C(F)(F)F)c1)N[C@H]1C[C@H](C(F)(F)F)C1 [Example 58]', 6.47),
  ('O=C(NCc1ccnc(OCC(F)(F)F)c1)NCC(O)C12CC(F)(C1)C2 (stereo not drawn) [Example 290]', 6.05),
  ('O=C(NCc1ccnc(OC(F)F)c1)NC1(C(F)(F)F)CC1 [Example 175]', 5.08);

Here are 3 molecules. What values of pEC50 were reported for them?
1. O=C(NCc1ccnc(OCC(F)(F)F)c1)NC1(C2CC(F)(F)C2)CC1 [Example 254]
2. O=C1CC2CCC(C1)C2NC(=O)NCc1ccnc(OC(F)F)c1 (racemic) [Example 139]
3. O=C(NC(CO)c1ccnc(OCC(F)(F)F)c1)NC12CC(F)(C1)C2 (stereo not drawn) [Example 283]

Result block:
1. 6.00
2. 5.28
3. 6.31

Here are 3 molecules. What values of pEC50 were reported for them?
1. CC1(C)CC[C@H](O)[C@@H](NC(=O)NCc2ccnc(OC(F)F)c2)C1 (racemic) [Example 101]
2. O=C(NCc1ccnc(-n2ccnc2)c1)NC1CCCC(C2CC2)C1 (stereo not drawn) [Example 8]
3. O=C(NCc1ccnc(OC(F)F)c1)NC1CC2CCCC2C1 (stereo not drawn) [Example 78]

Result block:
[5.92, 5.82, 7.70]

---

- system: Kv7.2 (Homo sapiens)
- Construct: expressed in transfected cells
- method_notes: Activation of Kv7.2 (in vitro assay, concentration response curve)
- Format: cell-based
- conditions: Kv7.2 activation max %
Give measured Emax for each item. Keep answers brief.
Answers are plain numbers, in %.

Guide cases for Emax, answers given:
INSERT INTO results (compound, test_value) VALUES
  ('O=C(NCc1ccnc(OC(F)F)c1)NCC1(C(F)(F)F)CC1', 49),
  ('O=C(NCc1ccnc(OCF)c1)Nc1cccc(Cl)c1', 78),
  ('O=C(NCc1ccnc(OC(F)F)c1)N[C@H]1C[C@H]2CCC[C@@]2(CO)C1 (racemic)', 49),
  ('[2H]C([2H])(NC(=O)NC12CCC(F)(CC1)CC2)c1ccnc(OC(F)F)c1', 60),
  ('O=C(NCc1ccnc(OC(F)F)c1)NC1CCCC1(F)F (stereo not drawn)', 77);

Here are 4 compounds. What values of Emax were reported for them?
1. O=C(NCc1ccnc(OC(F)F)c1)NCC12CC(C1)C2
2. N#CCOc1cc(CNC(=O)N[C@H]2C[C@H](C(F)(F)F)C2)ccn1
3. O=C(NCc1ccnc(OC(F)F)c1)NC1COC(C2CC2)C1 (stereo not drawn)
4. CC1(C)C[C@H](NC(=O)NCc2ccnc(OC(F)F)c2)[C@@H]1O (racemic)

Result block:
1: 57; 2: 66; 3: 66; 4: 73

---

- system: Kv7.2 (Homo sapiens)
- Construct: expressed in transfected cells
- method_notes: Activation of Kv7.2 (in vitro assay, concentration response curve)
- Format: cell-based
- conditions: Kv7.2 activation max %
quantity_kind: Emax (%)
Numbers only, in %.

Guide cases for Emax, answers given:
INSERT INTO assay_data (compound_structure, quantity_kind, test_value) VALUES
  ('O=C(NCc1ccnc(OC(F)F)c1)N[C@H]1CC[C@@H]2CCC[C@@H]21', 'Emax', 71),
  ('O=C(NCc1ccnc(OC(F)F)c1)NC1(C23CC(F)(C2)C3)CC1', 'Emax', 43),
  ('O=C(NCc1ccnc(OCF)c1)NC12CCC(F)(CC1)CC2', 'Emax', 58);

Here are 2 compounds. What values of Emax were reported for them?
1. CC(F)(F)c1cc(CNC(=O)NC23CC(F)(C2)C3)ccn1
2. O=C(NCc1ccnc(OCC(F)(F)F)c1)Nc1cccc(F)c1F

Result block:
54
62

---

- system: Kv7.2 (Homo sapiens)
- method_notes: Activation of Kv7.2 (in vitro assay, concentration response curve)
- conditions: activation of Kv7.2
- Procedure: The term “EC50” in this application is defined as: the agonistic effect of a compound can be determined by testing the compound in an in vitro assay as described herein, whereby the effect of the compound is measured across a range of compound concentrations. The resulting data is plotted as a concentration response curve, which typically follows a sigmoidal function, whereby the concentration of the compound is plotted on the x axis and the response (agonistic effect) is plotted on the y axis. […]
Give measured pEC50 for each item. Keep answers brief.
Numbers only, as −log10 of the molar value.

Guide cases for pEC50, answers given:
INSERT INTO measurements (compound_structure, quantity_kind, test_value) VALUES
  ('O=C(NCc1ccnc(-n2cnc(C(F)(F)F)c2)c1)NCC1CCC1', 'pEC50', 5.95),
  ('O=C(NCc1ccnc(OC(F)F)c1)N[C@H]1CC[C@@H]2CCC[C@@H]21', 'pEC50', 7.52),
  ('O=C(NCc1ccnc(OC(F)F)c1)N[C@H]1C[C@](O)(C(F)(F)F)C1', 'pEC50', 5.44);

--- query ---
Query block: Look at this molecule and give its reported pEC50. O=C(NCc1ccnc(OCC(F)(F)F)c1)N[C@H](C1CC1)C(F)(F)F
Result block: 6.62

Data credit: patent US20250074901A1
